The measurements presented in this section are drawn from patent US9434763B2.

# TESTED_ON: FXIII (plasma transglutaminase, factor XIII) (Homo sapiens)
# Sequence (P00488 whole entry): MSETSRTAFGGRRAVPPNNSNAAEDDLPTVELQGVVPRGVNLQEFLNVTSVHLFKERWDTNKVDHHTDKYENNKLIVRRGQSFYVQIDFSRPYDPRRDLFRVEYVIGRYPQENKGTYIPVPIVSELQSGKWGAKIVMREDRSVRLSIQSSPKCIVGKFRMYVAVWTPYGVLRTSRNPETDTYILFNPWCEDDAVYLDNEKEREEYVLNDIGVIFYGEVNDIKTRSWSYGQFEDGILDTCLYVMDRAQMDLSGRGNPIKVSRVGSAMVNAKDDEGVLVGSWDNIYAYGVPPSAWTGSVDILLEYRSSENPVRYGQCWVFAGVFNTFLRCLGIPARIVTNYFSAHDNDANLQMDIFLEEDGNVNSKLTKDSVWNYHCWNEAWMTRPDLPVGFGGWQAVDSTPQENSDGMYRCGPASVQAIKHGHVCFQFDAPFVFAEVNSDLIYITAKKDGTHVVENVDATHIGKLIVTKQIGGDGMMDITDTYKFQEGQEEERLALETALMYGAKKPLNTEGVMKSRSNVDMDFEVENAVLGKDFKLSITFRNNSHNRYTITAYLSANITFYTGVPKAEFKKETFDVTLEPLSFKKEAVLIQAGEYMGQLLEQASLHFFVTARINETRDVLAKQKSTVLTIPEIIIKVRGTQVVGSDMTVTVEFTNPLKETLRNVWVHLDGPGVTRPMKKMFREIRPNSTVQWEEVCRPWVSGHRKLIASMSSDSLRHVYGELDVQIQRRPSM
# TEST_SUMMARY: Comparative transglutaminase selectivity assay with casein and dansylcadaverine as substrates: FXIII
# ASSAY_CONTEXT: casein as substrate
READOUT_KIND: IC50 (µM)
Give a bare numeral; the unit µM is implied.

Here's what some known entries look like.
>>> print(df.to_string())
                                item_smiles  meas_value
0  CCOC(=O)/C=C/CC[C@H](NC(=O)c1cncn1C)C(=O)Nc1cccn(CC(=O)NCC(CC)CC)c1=O         120
1  CCOC(=O)/C=C/CC[C@H](NC(C)=O)C(=O)Nc1cccn(CC(=O)NCC(CC)CC)c1=O         122
2  COC(=O)/C=C/CC[C@H](NC(C)=O)C(=O)Nc1cccn(CC(=O)N2CCC(C(F)(F)F)CC2)c1=O         156
3  CCC(CC)CNC(=O)Cn1cccc(NC(=O)[C@H](CC/C=C/C(=O)OC)NC(=O)c2cncn2C)c1=O          89
4  CC[C@@H](C)[C@H](NC(=O)Cn1cccc(NC(=O)[C@H](CC/C=C/C(=O)OC)NC(=O)c2ccccc2)c1=O)C(=O)O        63.4
5  CCOC(=O)/C=C/CC[C@H](NC(=O)CCC(=O)O)C(=O)Nc1cccn(CC(=O)NCC(CC)CC)c1=O        90.9
6  CC[C@@H](C)[C@H](NC(=O)Cn1cccc(NC(=O)[C@H](CC/C=C/C(=O)OC)NC(=O)c2cncn2C)c1=O)C(=O)O        73.2
7  CCOC(=O)/C=C/CC[C@H](NC(=O)c1cncn1C)C(=O)Nc1cccn(CC(=O)NCCC(C)C)c1=O        81.1

Proceed to the following item.
Name the reported IC50 value associated with the molecule COC(=O)/C=C/CC[C@H](NC(C)=O)C(=O)Nc1cccn(CC(=O)NCCC(C)C)c1=O
67.4

====

pIC50 listing for selected compounds.
Sequence of the target: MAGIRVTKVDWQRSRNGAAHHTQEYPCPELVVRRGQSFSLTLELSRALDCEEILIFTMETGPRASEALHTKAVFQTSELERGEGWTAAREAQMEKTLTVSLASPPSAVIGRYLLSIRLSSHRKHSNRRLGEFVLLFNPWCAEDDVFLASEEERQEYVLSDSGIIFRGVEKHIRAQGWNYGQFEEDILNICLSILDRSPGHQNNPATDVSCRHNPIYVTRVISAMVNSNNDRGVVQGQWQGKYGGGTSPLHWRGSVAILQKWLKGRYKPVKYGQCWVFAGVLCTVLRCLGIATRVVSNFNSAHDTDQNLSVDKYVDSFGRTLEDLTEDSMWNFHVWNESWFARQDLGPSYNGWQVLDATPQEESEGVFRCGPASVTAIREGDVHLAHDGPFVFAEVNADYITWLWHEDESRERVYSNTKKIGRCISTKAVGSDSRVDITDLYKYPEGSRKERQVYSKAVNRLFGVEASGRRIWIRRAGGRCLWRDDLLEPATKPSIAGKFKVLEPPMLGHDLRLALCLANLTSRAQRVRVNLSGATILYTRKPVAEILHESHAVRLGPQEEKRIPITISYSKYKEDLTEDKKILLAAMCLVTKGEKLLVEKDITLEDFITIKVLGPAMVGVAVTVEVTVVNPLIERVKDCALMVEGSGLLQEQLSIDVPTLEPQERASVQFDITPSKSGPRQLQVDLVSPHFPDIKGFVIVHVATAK
// returns pIC50 (minus log10 of molar concentration), number only

                                   compound  readout_kind  meas_value
0  CCOC(=O)/C=C/CC[C@H](NC(=O)CCC(=O)O)C(=O)Nc1cccn(CC(=O)NCCC(C)C)c1=O         pIC50        4.41

Which pIC50 is reported for this compound? COC(=O)/C=C/CC[C@H](NC(C)=O)C(=O)Nc1cccn(CC(=O)N2CCCC(C)C2)c1=O (some centres unmarked)
3.96

Lookup CCOC(=O)/C=C/CC[C@H](NC(=O)CCC(=O)O)C(=O)Nc1cccn(CC(=O)NCC(CC)CC)c1=O
4.48

Please give the result for CCC(CC)CNC(=O)Cn1cccc(NC(=O)[C@H](CC/C=C/C(=O)OC)NC(C)=O)c1=O too.
4.32

Likewise for COC(=O)/C=C/CC[C@H](NC(C)=O)C(=O)Nc1cccn(CC(=O)NCCC(C)C)c1=O ?
4.08
